Experiment: qHTS assay to identify small molecule that activate the aryl hydrocarbon receptor (AhR) signaling pathway - cell viability counter screen (AID 743086);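 also: HepG2 liver cells carrying the AhR DRE luciferase reporter; % is scaled to controls: 0 for no effect and ±100 for the full control effect; nearly all actives have a fitted effect of over 45% in size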
Conditions: HepG2-AhR-luc viability, CellTiter-Fluor, 24 h; series mostly up to 70.3 µM
Records with an inconclusive call do not appear. The source made the active and inactive calls. Calls follow the shape of the dose curve; as a rule, active = well fitted cell-killing curve with a large enough effect in the repeat runs; inconclusive = weak or mixed curves, or effect the other way; inactive = flat fitted curve, though single readings scatter.
measuredMetric: viability change, negative = cytotoxic

Below: 6 molecules and their reported viability change, negative = cytotoxic.
molecule	viability change, negative = cytotoxic
CCCCCCCCOC(C)=O	inactive
NS(=O)(=O)c1cc2c(cc1Cl)NC(CC1CCCC1)NS2(=O)=O (stereo not drawn)	inactive
CCCCCCCC[Si](OCC)(OCC)OCC	inactive
C=CCCCCCCCCCCC	0.7% [at 8.47 µM] (inactive)
CCCCCC1CCCC(=O)O1 (stereo not drawn)	inactive
Cc1cccc(C(=O)O)c1[N+](=O)[O-]	inactive

[in] So what does the record say about viability change, negative = cytotoxic for O=C1CC[C@H](C(=O)N2CCCCC2)N1 ?
[out] inactive

[in] So what does the record say about viability change, negative = cytotoxic for CN(C)CCCNCCC#N ?
[out] inactive
